Source of measurements: patent US20250222125A1

- Target of assay: human FGFR2b (Homo sapiens, UniProt P21802)
- Sequence (P21802 22-822 isoform P21802-3 limits assumed): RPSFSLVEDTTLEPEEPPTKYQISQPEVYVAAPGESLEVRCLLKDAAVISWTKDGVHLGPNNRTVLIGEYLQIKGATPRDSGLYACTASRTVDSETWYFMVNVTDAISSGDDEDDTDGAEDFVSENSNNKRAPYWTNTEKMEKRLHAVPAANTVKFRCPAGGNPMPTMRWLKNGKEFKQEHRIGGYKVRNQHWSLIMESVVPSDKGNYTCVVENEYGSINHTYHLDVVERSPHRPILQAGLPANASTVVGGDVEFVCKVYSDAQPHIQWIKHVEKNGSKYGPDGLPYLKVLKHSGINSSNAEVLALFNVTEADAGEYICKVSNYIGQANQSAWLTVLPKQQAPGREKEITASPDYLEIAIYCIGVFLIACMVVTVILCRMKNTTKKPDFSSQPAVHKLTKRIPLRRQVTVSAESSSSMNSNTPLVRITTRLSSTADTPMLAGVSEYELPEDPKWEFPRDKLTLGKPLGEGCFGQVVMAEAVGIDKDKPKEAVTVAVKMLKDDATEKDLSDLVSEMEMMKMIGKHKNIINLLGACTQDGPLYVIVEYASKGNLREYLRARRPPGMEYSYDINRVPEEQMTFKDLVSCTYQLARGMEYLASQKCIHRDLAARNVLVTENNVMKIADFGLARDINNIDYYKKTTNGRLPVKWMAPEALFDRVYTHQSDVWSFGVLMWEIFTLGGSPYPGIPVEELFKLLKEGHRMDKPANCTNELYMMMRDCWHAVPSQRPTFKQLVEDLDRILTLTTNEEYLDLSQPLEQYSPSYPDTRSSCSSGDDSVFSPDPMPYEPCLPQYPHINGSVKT
- Measurement description: ELISA binding to recombinant human FGFR2b (Example 11)
For each record, write down the corresponding Emax (A450).

-- ask Fill in reported Emax (A450) for this entry: BGAh9179: humanized anti-FGFR2b IgG1 antibody from murine BGAm1371; VH SEQ ID NO: 21, VL SEQ ID NO: 22 (antibody, V domains shown, Synthetic: VH AA; Synthetic: VL AA) VH: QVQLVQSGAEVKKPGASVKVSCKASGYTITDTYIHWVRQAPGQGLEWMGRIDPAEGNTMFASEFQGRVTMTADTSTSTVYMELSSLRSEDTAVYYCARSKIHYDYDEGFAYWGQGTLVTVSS VL: DIVLTQSPDSLAVSLGERATINCRASESVDDYGYSFLHWYQQKPGQPPKLLIYRASNLESGVPDRFSGSGSGTDFTLTISSLQAEDVAVYYCQQSNQNPRTFGGGTKVEIK
-- reply 2.993 A450

-- ask Fill in reported Emax (A450) for this entry: BGAm1371: parental murine anti-FGFR2b antibody (parental mouse clone); VH SEQ ID NO: 32, VL SEQ ID NO: 34 (antibody, V domains shown, Synthetic: VH AA; Synthetic: VL AA) VH: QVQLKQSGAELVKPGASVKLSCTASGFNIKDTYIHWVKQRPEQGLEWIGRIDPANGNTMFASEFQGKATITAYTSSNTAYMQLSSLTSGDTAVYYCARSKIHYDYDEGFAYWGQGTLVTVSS VL: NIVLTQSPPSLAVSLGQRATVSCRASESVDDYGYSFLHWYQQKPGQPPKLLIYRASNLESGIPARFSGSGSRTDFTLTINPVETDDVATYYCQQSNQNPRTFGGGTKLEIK
-- reply 3.013 A450

-- ask Fill in reported Emax (A450) for this entry: BGAh9239: humanized anti-FGFR2b IgG1 antibody from murine BGAm1823; VH SEQ ID NO: 9, VL SEQ ID NO: 10 (antibody, V domains shown, Synthetic: VH AA; Synthetic: VL AA) VH: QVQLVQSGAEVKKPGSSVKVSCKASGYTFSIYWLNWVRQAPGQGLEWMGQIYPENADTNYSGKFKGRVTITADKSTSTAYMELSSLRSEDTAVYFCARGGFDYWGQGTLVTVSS VL: DIQMTQSPSSLSASVGDRVTITCRASENIYSNLAWYQQKPGKAPKLLIYTATNLAEGVPSRFSGSGSGTDFTLTISSLQPEDFATYYCQHFYGILYTFGQGTRLEIK
-- reply 2.945 A450
